test: chemical genetic growth profiling, strain panel (AID 1159580);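 further: tested at 20 µM; growth read once vehicle control cultures reached saturation at 30 °C; 1 = growth at the plate median or of vehicle wells; lower values mean less growth of the strain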; details: S. cerevisiae deletion strains, growth OD, locus YPL055C, strain LGE1, hits give low values
About 2,000 (36%) of roughly 5,500 compounds were called active. About 18% were inconclusive and are not listed. This is one part of the list.
Observation type: normalized growth
Give your answer as a number; write no unit.

Below, each entry is followed by its recorded normalized growth result.
{"Compound": "COc1cccc(OC)c1C(=O)N[C@@H]1C(=O)N2[C@@H]1SC(C)(C)[C@@H]2C(=O)O", "Measured value": 0.968}
{"Compound": "COP(=O)(OC)OC(Br)C(Cl)(Cl)Br (stereo not given)", "Measured value": 0.99}
{"Compound": "CC(=O)Oc1cc2c(c(C)c1OC(C)=O)CC1OC13C2(C)CCC1(C)C2CC(C)(C(=O)O)CCC2(C)CCC13C (stereo not given)", "Measured value": 1.01}
{"Compound": "CCCc1nc2c(C)cc(-c3nc4ccccc4n3C)cc2n1Cc1ccc(-c2ccccc2C(=O)O)cc1", "Measured value": 0.974}

Assign normalized growth to the following record: C1CCN(CCC2CCCCN2)CC1 (stereo not given)
0.967

Given the compound Cc1ccc(N=Nc2c(C)[nH]n(C)c2=O)cc1 , write its reported normalized growth.
0.847

====

test: chemical genetic growth profiling, strain panel (AID 1159580);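 further: tested at 20 µM; growth read once vehicle control cultures reached saturation at 30 °C; 1 = growth at the plate median or of vehicle wells; lower values mean less growth of the strain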; conditions: S. cerevisiae deletion strains, growth OD, locus YJL134W, strain LCB3, hits give low values
In all, about 5,500 compounds went through this assay and about 2,000 (36%) were called active. Not shown: some 18% with an inconclusive outcome. The list shows a part of the results. *1 amine or outer side, *2 acyl side, *3 side chain or, on linkers, in order; H or OH if unused. Where a SMILES comes first, the peptide text is derived from it. Bridges are numbered along the chain shown (N, C = ends). [ ]: non-standard residue; d: D form. The star is where a group is joined. ξ: configuration not given here. ΔAla(E,3-NHCONH2) = NC(=O)N/C=C(/N)C(=O)O; X2 = NC1=NCCC(C(N[*:1])C(=O)[*:2])N1; ξβ3hOrn = NCCCC(N)CC(=O)*; Dap = NC[CH](N)C(=O)O
Overview of recorded normalized growth for various compounds
Simply state the number, no unit and no words.

Below: 2 compounds and their reported normalized growth.
{"Compound": "CCC1C(=O)OCC1Cc1cncn1C (stereo unspecified)", "Measured value": 1.01}
{"Compound": "COc1cc(/C=C/C=O)cc(OC)c1OC", "Measured value": 1.01}

Consider the compound NCCCC(N)CC(=O)NCC1NC(=O)C(CO)NC(=O)C(N)CNC(=O)C(C2CCN=C(N)N2)NC(=O)/C(=C\NC(N)=O)NC1=O (stereo not drawn) (H-[Dap]S[Dap](ξβ3hOrn)[ΔAla(E,3-NHCONH2)][X2]; lactam 1-C; configuration not given here) and give its recorded normalized growth.
1.01

Provide only the value of recorded normalized growth for C=C(C)[C@@H]1CC[C@]2(CO)CC[C@]3(C)[C@H](CCC4[C@@]5(C)CC[C@H](O)C(C)(C)C5CC[C@]43C)C12 (stereo partly specified)
0.992

Provide measured normalized growth value, entry: CCc1cccc2c3c([nH]c12)C(CC)(CC(=O)O)OCC3 (stereo unspecified)
1.01

# return recorded normalized growth for input O=C(CCc1ccc(O)cc1)c1c(O)cc(O)cc1O[C@@H]1O[C@H](CO)[C@@H](O)[C@H](O)[C@H]1O
1.01
